Origin of the recorded values: the supplement of paper PMC5998384

For each entry below, report its solubility change mitosis (log2) value.
- Test system: HeLa Kyoto
- protocol: solubility change mitosis vs G1/S (difference of NP-40 vs SDS log2 ratios) (log2 ratio difference); higher = more soluble in mitosis
Numbers only.

>>> val("ARHGAP21")
0.156
>>> val("MTQPVPRLSVPAALALGSAALGAAFATGLFLGRRCPPWRGRREQCLLPPEDSRLWQYLLSRSMREHPALRSLRLLTLEQPQGDSMMTCEQAQLLANLARLIQAKKALDLGTFTGYSALALALALPADGRVVTCEVDAQPPELGRPLWRQAEAEHKIDLRLKPALETLDELLAAGEAGTFDVAVVDADKENCSAYYERCLQLLRPGGILAVLRVLWRGKVLQPPKGDVAAECVRNLNERIRRDVRVYISLLPLGDGLTLAFKI [COMTD1]")
0.00811

Now look at this one.
Req: Give the reported solubility change mitosis (log2) for MWHSVGLTLLVFVATLLIVLLLMVCGWYFVWHLFLSKFKFLRELVGDTGSQEGDHEPSGSETEEDTSSSPHRIRSARQRRAPADEGHRPLT [SMIM13] (system: HeLa Kyoto).
Resp: -0.138

---

- Tested on: HeLa Kyoto
- protocol: solubility change mitosis vs G1/S (difference of NP-40 vs SDS log2 ratios) (log2 ratio difference); higher = more soluble in mitosis
For each entry below, report its solubility change mitosis (log2) value.
Numbers only.

In the examples that follow, each entry is paired with its recorded solubility change mitosis (log2).
>>> val("MAAPRWSASGPWIRGNGQGCGSLFTLVSKPFCAAAAASTAINAQRLAEKLRAQKREQDTKKEPVSTNAVQRRVQEIVRFTRQLQRVHPNVLAKALTRGILHQDKNLVVINKPYGLPVHGGPGVQLCITDVLPILAKMLHGHKAEPLHLCHRLDKETTGVMVLAWDKDMAHQVQELFRTRQVVKKYWAITVHVPMPSAGVVDIPIVEKEAQGQQQHHKMTLSPSYRMDDGKMVKVRRSRNAQVAVTQYQVLSSTLSSALVELQPITGIKHQLRVHLSFGLDCPILGDHKYSDWNRLAPQKLSVGTLKKLGLEQSKARYIPLHLHARQLILPALGSGKEELNLVCKLPRFFVHSLHRLRLEMPNEDQNENNEAKCLGAQ [RPUSD4]")
0.0788
>>> val("MGAVWSALLVGGGLAGALFVWLLRGGPGDTGKDGDAEQEKDAPLGGAAIPGGHQSGSSGLSPGPSGQELVTKPEHLQESNGHLISKTKDLGKLQAASWRLQNPSREVCDNSREHVPSGQFPDTEAPATSETSNSRSYSEVSRNESLESPMGEWGFQKGQEISAKAATCFAEKLPSSNLLKNRAKEEMSLSDLNSQDRVDHEEWEMVPRHSSWGDVGVGGSLKAPVLNLNQGMDNGRSTLVEARGQQVHGKMERVAVMPAGSQQVSVRFQVHYVTSTDVQFIAVTGDHECLGRWNTYIPLHYNKDGFWSHSIFLPADTVVEWKFVLVENGGVTRWEECSNRFLETGHEDKVVHAWWGIH [STBD1]")
-0.0441

Now look at this one.
Req: Give the reported solubility change mitosis (log2) for MAGGGAGDPGLGAAAAPAPETREHLFKVLVIGELGVGKTSIIKRYVHQLFSQHYRATIGVDFALKVLNWDSRTLVRLQLWDIAGQERFGNMTRVYYKEAVGAFVVFDISRSSTFEAVLKWKSDLDSKVHLPNGSPIPAVLLANKCDQNKDSSQSPSQVDQFCKEHGFAGWFETSAKDNINIEEAARFLVEKILVNHQSFPNEENDVDKIKLDQETLRAENKSQCC [RAB32] (system: HeLa Kyoto).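 Further: synchronized HeLa Kyoto cells (double thymidine block for G1/S, nocodazole release for mitosis), protein amounts in NP-40 versus SDS lysates quantified by mass spectrometry, three biological replicates.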
Resp: -0.0818
